tested on: normal primary NK cells, pool 1 (3 donors), resting (IL-2 0 ng/mL); test: percent inhibition of viability; higher = more inhibition; settings: 72 h; 10 nM;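 note: normalised to DMSO-only wells as negative and benzethonium chloride as positive control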
Here, each record is paired with measured percent inhibition of viability data.
REPORTED PROPERTY: percent inhibition of viability

[
  {
    "MOLECULE": "Cc1cccc(-c2nn3c(c2-c2ccnc4ccc(C(N)=O)cc24)CCC3)n1 [Galunisertib] (max concentration tested 1000 nM)",
    "RECORDED MEASUREMENT": "-8.83%"
  },
  {
    "MOLECULE": "Cn1c(Nc2ccc(C(F)(F)F)cc2)nc2cc(Oc3ccnc(-c4ncc(C(F)(F)F)[nH]4)c3)ccc21 [RAF265] (max concentration tested 1000 nM)",
    "RECORDED MEASUREMENT": "11.3%"
  },
  {
    "MOLECULE": "O=C(O)CC[C@H]1CC[C@@](c2cc(F)ccc2F)(S(=O)(=O)c2ccc(Cl)cc2)CC1 [MK-0752] (max concentration tested 1000 nM)",
    "RECORDED MEASUREMENT": "-8.36%"
  },
  {
    "MOLECULE": "COc1cc(CCc2cc(NC(=O)c3ccc(N4CC(C)NC(C)C4)cc3)n[nH]2)cc(OC)c1 (stereo unspecified) [AZD4547] (max concentration tested 1000 nM)",
    "RECORDED MEASUREMENT": "12.4%"
  },
  {
    "MOLECULE": "CC[C@H](CC#N)OC(=O)N[C@@H](C)c1cccc(NC(=O)Nc2ccc(-c3cnco3)c(OC)c2)c1 [AVN944] (max concentration tested 10000 nM)",
    "RECORDED MEASUREMENT": "-2.43%"
  },
  {
    "MOLECULE": "CCCCCCCCc1ccc(CCC(N)(CO)CO)cc1 [Fingolimod] (max concentration tested 10000 nM)",
    "RECORDED MEASUREMENT": "-1.75%"
  },
  {
    "MOLECULE": "N#Cc1ccc2[nH]c(O)c(-c3ccc(CN4CCOCC4)cn3)c2c1 [AZD-1080] (max concentration tested 10000 nM)",
    "RECORDED MEASUREMENT": "6.84%"
  },
  {
    "MOLECULE": "COc1cc([C@@H]2c3cc4c(cc3[C@@H](O[C@@H]3O[C@@H]5CO[C@@H](C)O[C@H]5[C@H](O)[C@H]3O)[C@H]3COC(=O)[C@H]23)OCO4)cc(OC)c1O [Etoposide] (max concentration tested 10000 nM)",
    "RECORDED MEASUREMENT": "10%"
  },
  {
    "MOLECULE": "CO[C@H]1C[C@@H]2CC[C@@H](C)[C@@](O)(O2)C(=O)C(=O)N2CCCC[C@H]2C(=O)O[C@H]([C@H](C)C[C@@H]2CC[C@@H](OCCO)[C@H](OC)C2)CC(=O)[C@H](C)/C=C(\\C)[C@@H](O)[C@@H](OC)C(=O)[C@H](C)C[C@H](C)/C=C/C=C/C=C/1C [Everolimus] (max concentration tested 100 nM)",
    "RECORDED MEASUREMENT": "11.5%"
  },
  {
    "MOLECULE": "NC1(c2ccc(-c3nc4ccn5c(=O)[nH]nc5c4cc3-c3ccccc3)cc2)CCC1 [MK-2206] (max concentration tested 1000 nM)",
    "RECORDED MEASUREMENT": "13.2%"
  },
  {
    "MOLECULE": "Cc1c(N)nc([C@H](CC(N)=O)NC[C@H](N)C(N)=O)nc1C(=O)N[C@H](C(=O)N[C@H](C)[C@@H](O)[C@H](C)C(=O)N[C@H](C(=O)NCCc1nc(-c2nc(C(=O)NCCC[S+](C)C)cs2)cs1)[C@@H](C)O)[C@@H](OC1OC(CO)C(O)C(O)C1OC1OC(CO)C(O)C(OC(N)=O)C1O)c1cnc[nH]1 (stereo partly specified) [Bleomycin] (max concentration tested 10000 nM)",
    "RECORDED MEASUREMENT": "-0.23%"
  }
]
